Reported %Inh by item:
Tested on: SIK
Settings: concentration: 1 μM,replicates: in singlicate; n = 1;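 further: KINOMEscan kinase panel screen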
assay endpoint: %Inh

* CCN(CC)CCOc1ccc(Nc2ncc3cc(-c4c(Cl)cccc4Cl)c(=O)n(C)c3n2)cc1 | 99.8%
* Cl.Cl.NC[C@H](CC1CCCCC1)NC(=O)c1cc(Br)c(-c2ccnc3[nH]ccc23)s1 | 0%
* Cc1n[nH]c2ccc(-c3cc(OC[C@@H](N)Cc4ccccc4)cnc3-c3ccoc3)cc12.O=C(O)C(F)(F)F.O=C(O)C(F)(F)F | 0%
* Cc1ccc2c(-c3ccncc3)c(-c3ccc(F)cc3)nn2c1.Cl | 0%
* Nc1nc(Nc2ccccc2)cc(-c2ccc3c(N)n[nH]c3c2)n1 | 0%
* CCN(CC)CCCCNc1ncc2cc(-c3c(Cl)cccc3Cl)c(NC(=O)NC(C)(C)C)nc2n1 | 93.6%
* CNC(=O)c1ccccc1Sc1ccc2c(/C=C/c3ccccn3)n[nH]c2c1 | 0%
* CN(C)CCOc1ccc(-c2cc(-c3c[nH]nc3-c3ccccn3)ccn2)cc1 | 21%
* C[C@H]1Oc2cc(cnc2N)-c2c(nn(C)c2C#N)CN(C)C(=O)c2ccc(F)cc21 | 12%
* CC(C)Nc1cc(-c2ccc3c(N)n[nH]c3c2)nc(N)n1 | 0%
* C[C@@H]1CCN(C(=O)CC#N)C[C@@H]1N(C)c1ncnc2[nH]ccc12 | 0%
* CC(C)N1C(=O)Cc2cc(Nc3ncc(C(F)(F)F)c(NCc4cccc(S(C)(=O)=O)c4)n3)ccc21 | 10%
* CCn1c(-c2nonc2N)nc2c(C#CC(C)(C)O)nc(OCCN)cc21.Cl.Cl | 0%

----------
Listed here: items and their measured %Inh.
Test system: AURKB
Details: concentration: 1 μM,replicates: in singlicate; n = 1
assay endpoint: %Inh (%)

• CCn1c(-c2nonc2N)nc2c(C#CC(C)(C)O)nc(OCCN)cc21.Cl.Cl [GSK902056] = 38
• C[C@@H](Oc1cc(-c2cnn(C3CCNCC3)c2)cnc1N)c1c(Cl)ccc(F)c1Cl = 98.3
• C=CC(=O)Nc1cc2c(Nc3ccc(F)c(Cl)c3)ncnc2cc1OCCCN1CCOCC1 [GW781483] = 0
• NC(=O)c1cc(-c2ccccc2)cc2c(C3CCNCC3)c[nH]c12 [GSK301362] = 1
• Cl.Cl.NC[C@H](CC1CCCCC1)NC(=O)c1cc(Br)c(-c2ccnc3[nH]ccc23)s1 [GSK1581427] = 62
• Cc1occc1-c1nc(N)c(OC[C@@H](N)Cc2c[nH]c3ccccc23)cc1-c1cc2c(C)n[nH]c2cn1 [GSK1660450] = 0
• Cc1cc(C(=O)Nc2ccc(Oc3ccc4nc(NC(=O)C5CC5)cn4n3)cc2)nn1-c1ccccc1 = 66
• CC(C)Nc1cc(-c2ccc3c(N)n[nH]c3c2)nc(N)n1 [GSK2221681] = 0

----------
Below is a list of entries, each paired with its recorded %Inh value.
Test system: CDK4-cyclinD1
Settings: concentration: 1 μM,replicates: in singlicate; n = 1
assay endpoint: %Inh (%)

- NC(=O)c1cc(-c2ccccc2)cc2c(C3CCNCC3)c[nH]c12 [GSK301362]: 0
- Cl.Oc1cc(-c2nc(-c3ccccc3)[nH]c2-c2ccncc2)ccc1Cl [SB-386023]: 2
- C=CC(=O)Nc1cc2c(Nc3ccc(F)c(Cl)c3)ncnc2cc1OCCCN1CCOCC1 [GW781483]: 27
- Cc1cc2cn[nH]c2cc1-c1cccc2c(N)c(C(N)=O)nnc12: 8
- CC(C)N1C(=O)Cc2cc(Nc3ncc(C(F)(F)F)c(NCc4cccc(S(C)(=O)=O)c4)n3)ccc21: 26
- Cc1occc1-c1nc(N)c(OC[C@@H](N)Cc2c[nH]c3ccccc23)cc1-c1cc2c(C)n[nH]c2cn1 [GSK1660450]: 0
- CC(C)Nc1cc(-c2ccc3c(N)n[nH]c3c2)nc(N)n1 [GSK2221681]: 0
- Cc1ccc(-n2nc(C(C)(C)C)cc2NC(=O)Nc2ccc(OCCN3CCOCC3)c3ccccc23)cc1 [GW839464]: 5

----------
System: LCK
Settings: concentration: 1 μM,replicates: in singlicate; n = 1
Label rule, in plain words: %Inh of 20% and up is true (1), under 20% is false (0).

- Cl.Cl.NC[C@H](CC1CCCCC1)NC(=O)c1cc(Br)c(-c2ccnc3[nH]ccc23)s1 [GSK1581427]: true (1)
- Cc1ccc2c(-c3ccncc3)c(-c3ccc(F)cc3)nn2c1.Cl [GW461484]: false (0)
- C[C@@H](Oc1cc(-c2cnn(C3CCNCC3)c2)cnc1N)c1c(Cl)ccc(F)c1Cl: true (1)
- CCn1c(-c2nonc2N)nc2c(C#CC(C)(C)O)nc(OCCN)cc21.Cl.Cl [GSK902056]: false (0)
- CCN(CC)CCOc1ccc(Nc2ncc3cc(-c4c(Cl)cccc4Cl)c(=O)n(C)c3n2)cc1 [SB-601273]: true (1)
- COc1ccc(C[C@@H](CN)NC(=O)c2cc(Br)c(-c3ccnc4[nH]ccc34)s2)cc1.Cl.Cl [GSK1389063]: true (1)
- Cc1n[nH]c2ccc(-c3cc(OC[C@@H](N)Cc4ccccc4)cnc3-c3ccoc3)cc12.O=C(O)C(F)(F)F.O=C(O)C(F)(F)F [GSK507358]: true (1)
- Cl.Cl.Nc1nc(-c2ccc3c(N)n[nH]c3c2)cc(N2CCCC(NC(=O)c3ccccc3)C2)n1 (stereo not drawn) [GSK2286775]: false (0)
- CN(C)CC(O)COc1ccc(Nc2nccc(-c3cnn4nc(N5CCOCC5)ccc34)n2)cc1 (stereo not drawn) [GW767488]: true (1)

----------
Tested on: CIT
Conditions: concentration: 1 μM,replicates: in singlicate; n = 1
# %Inh values compiled below
assay endpoint: %Inh (%)

- COc1ccc(C[C@@H](CN)NC(=O)c2cc(Br)c(-c3ccnc4[nH]ccc34)s2)cc1.Cl.Cl: 93.5
- C[C@@H]1CCN(C(=O)CC#N)C[C@@H]1N(C)c1ncnc2[nH]ccc12: 0
- Cc1cc(C(=O)Nc2ccc(Oc3ccc4nc(NC(=O)C5CC5)cn4n3)cc2)nn1-c1ccccc1: 29
- C=CC(=O)Nc1cc2c(Nc3ccc(F)c(Cl)c3)ncnc2cc1OCCCN1CCOCC1: 31
- CC(C)N1C(=O)Cc2cc(Nc3ncc(C(F)(F)F)c(NCc4cccc(S(C)(=O)=O)c4)n3)ccc21: 21
- CCN(CC)CCOc1ccc(Nc2ncc3cc(-c4c(Cl)cccc4Cl)c(=O)n(C)c3n2)cc1: 74
- Cc1occc1-c1nc(N)c(OC[C@@H](N)Cc2c[nH]c3ccccc23)cc1-c1cc2c(C)n[nH]c2cn1: 99.4
- O=C(NCCCN1CCOC1=O)c1cnc(NCc2cc(Cl)ccc2Cl)nc1NC1CCCC1: 25
- Cc1cc2cn[nH]c2cc1-c1cccc2c(N)c(C(N)=O)nnc12: 0
- Cc1ccc2c(-c3ccncc3)c(-c3ccc(F)cc3)nn2c1.Cl: 98.7
- NC(=O)c1cc(-c2ccccc2)cc2c(C3CCNCC3)c[nH]c12: 42
- Cl.Cl.Nc1nc(-c2ccc3c(N)n[nH]c3c2)cc(N2CCCC(NC(=O)c3ccccc3)C2)n1 (centres unmarked): 0
- O=C(NCCNc1ccnc(NCc2ccc(F)cc2)n1)c1cc2ccccc2s1: 26
- C[C@@H](Oc1cc(-c2cnn(C3CCNCC3)c2)cnc1N)c1c(Cl)ccc(F)c1Cl: 10
- CN(C)CCOc1ccc(-c2cc(-c3c[nH]nc3-c3ccccn3)ccn2)cc1: 45
- CNC(=O)c1ccccc1Sc1ccc2c(/C=C/c3ccccn3)n[nH]c2c1: 0
- Cc1n[nH]c2ccc(-c3cc(OC[C@@H](N)Cc4ccccc4)cnc3-c3ccoc3)cc12.O=C(O)C(F)(F)F.O=C(O)C(F)(F)F: 100

----------
Tested on: CSNK2A2
Settings: concentration: 1 μM,replicates: in singlicate; n = 1
assay endpoint: %Inh (%)

* CC(C)Nc1cc(-c2ccc3c(N)n[nH]c3c2)nc(N)n1 | 28
* NC(=O)c1cc(-c2ccccc2)cc2c(C3CCNCC3)c[nH]c12 | 20
* CN(C)CC(O)COc1ccc(Nc2nccc(-c3cnn4nc(N5CCOCC5)ccc34)n2)cc1 (stereo not drawn) | 98.7
* CC(C)N1C(=O)Cc2cc(Nc3ncc(C(F)(F)F)c(NCc4cccc(S(C)(=O)=O)c4)n3)ccc21 | 82
* Cl.Oc1cc(-c2nc(-c3ccccc3)[nH]c2-c2ccncc2)ccc1Cl | 30
* COc1ccc(C[C@@H](CN)NC(=O)c2cc(Br)c(-c3ccnc4[nH]ccc34)s2)cc1.Cl.Cl | 64
* CCN(CC)CCOc1ccc(Nc2ncc3cc(-c4c(Cl)cccc4Cl)c(=O)n(C)c3n2)cc1 | 9
* CNC(=O)c1ccccc1Sc1ccc2c(/C=C/c3ccccn3)n[nH]c2c1 | 0
* Cl.Cl.NC[C@H](CC1CCCCC1)NC(=O)c1cc(Br)c(-c2ccnc3[nH]ccc23)s1 | 0
* C[C@H]1Oc2cc(cnc2N)-c2c(nn(C)c2C#N)CN(C)C(=O)c2ccc(F)cc21 | 0
* Cc1n[nH]c2ccc(-c3cc(OC[C@@H](N)Cc4ccccc4)cnc3-c3ccoc3)cc12.O=C(O)C(F)(F)F.O=C(O)C(F)(F)F | 8
* Cc1occc1-c1nc(N)c(OC[C@@H](N)Cc2c[nH]c3ccccc23)cc1-c1cc2c(C)n[nH]c2cn1 | 48
* CCN(CC)CCCCNc1ncc2cc(-c3c(Cl)cccc3Cl)c(NC(=O)NC(C)(C)C)nc2n1 | 12
* Cc1ccc2c(-c3ccncc3)c(-c3ccc(F)cc3)nn2c1.Cl | 0
* C[C@@H](Oc1cc(-c2cnn(C3CCNCC3)c2)cnc1N)c1c(Cl)ccc(F)c1Cl | 0
